test-system: HER2 YVMA (Homo sapiens, UniProt P04626, INS775YVMA)
Construct: expressed in transfected cells; host or cells: BaF3 (murine pro-B)
Sequence (P04626 with tags, fused parts or gaps INS775YVMA): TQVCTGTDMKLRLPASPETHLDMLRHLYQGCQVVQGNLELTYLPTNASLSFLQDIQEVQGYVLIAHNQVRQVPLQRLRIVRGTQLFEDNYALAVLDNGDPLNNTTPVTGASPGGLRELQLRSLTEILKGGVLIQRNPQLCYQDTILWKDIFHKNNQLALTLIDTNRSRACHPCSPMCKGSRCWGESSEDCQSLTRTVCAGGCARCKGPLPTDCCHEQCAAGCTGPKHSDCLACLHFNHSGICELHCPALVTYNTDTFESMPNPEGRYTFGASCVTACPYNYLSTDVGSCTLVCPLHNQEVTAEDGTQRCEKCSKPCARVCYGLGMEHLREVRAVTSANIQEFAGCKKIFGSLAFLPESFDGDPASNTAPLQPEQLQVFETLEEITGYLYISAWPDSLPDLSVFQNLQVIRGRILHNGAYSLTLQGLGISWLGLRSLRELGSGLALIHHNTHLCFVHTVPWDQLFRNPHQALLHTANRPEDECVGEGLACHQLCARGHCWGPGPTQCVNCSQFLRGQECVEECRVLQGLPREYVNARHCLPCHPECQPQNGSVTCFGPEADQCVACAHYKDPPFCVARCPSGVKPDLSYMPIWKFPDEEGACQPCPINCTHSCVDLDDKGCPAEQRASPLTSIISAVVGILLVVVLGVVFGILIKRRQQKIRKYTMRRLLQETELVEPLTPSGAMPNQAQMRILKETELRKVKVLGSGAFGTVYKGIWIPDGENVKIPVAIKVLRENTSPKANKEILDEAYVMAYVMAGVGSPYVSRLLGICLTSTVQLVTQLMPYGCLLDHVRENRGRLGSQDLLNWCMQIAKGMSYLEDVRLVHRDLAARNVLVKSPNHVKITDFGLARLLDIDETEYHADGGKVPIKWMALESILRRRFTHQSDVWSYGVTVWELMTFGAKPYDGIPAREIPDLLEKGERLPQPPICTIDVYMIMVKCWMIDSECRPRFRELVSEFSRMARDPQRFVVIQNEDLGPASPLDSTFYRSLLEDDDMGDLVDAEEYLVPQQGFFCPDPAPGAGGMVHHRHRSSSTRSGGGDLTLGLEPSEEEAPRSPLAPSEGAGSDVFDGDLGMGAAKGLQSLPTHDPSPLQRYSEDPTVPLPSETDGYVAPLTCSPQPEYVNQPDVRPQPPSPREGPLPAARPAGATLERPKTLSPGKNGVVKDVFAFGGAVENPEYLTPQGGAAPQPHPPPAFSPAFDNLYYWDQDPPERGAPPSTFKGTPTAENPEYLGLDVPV
method: BaF3 cell proliferation assay, HER2 YVMA (Table B)
Format: cell-based
measurement-conditions: potency code, 3 days, CellTiterGlo, read-out: HER2 YVMA (Activity for Inhibiting HER2)
pIC50: −log10 of the molar value.
Reported pIC50 values follow for various compounds

Worked examples, 6 compounds total:
C=CC(=O)Nc1cc2c(Nc3ccc(OCc4ccccn4)c(Cl)c3)ncnc2cc1C#CC1[C@H]2CNC[C@@H]12 (some centres unmarked) [compound 105]    6.70 to 7.00
C=CC(=O)Nc1cc2c(Nc3ccc(OCc4ccccn4)c(Cl)c3)ncnc2cc1C#CC1CCCN1 (centres unmarked) [compound 83]    6.70 to 7.00
CC#CC(=O)Nc1cc2c(Nc3cc(Cl)c(OCc4cccc(F)c4)cc3F)ncnc2cc1OCCN1CC2CCC(C1)O2 [compound 148]    7.00 to 7.30
C=CC(=O)Nc1cc2c(Nc3ccc(OCc4ncccn4)c(Cl)c3)ncnc2cc1OCCCN1CCOCC1 [compound 166]    6.70 to 7.00
C=CC(=O)Nc1cc2c(Nc3ccc(OCc4ccccn4)c(Cl)c3)ncnc2cc1OCCN(C)C1CCOC1 (centres unmarked) [compound 41]    7.00 to 7.30
C=C(F)C(=O)Nc1cc2c(Nc3ccc(OCc4ccccn4)c(Cl)c3)ncnc2cc1OCCN1CCOCC1 [compound 109]    7.00 to 7.30

Lab note: next compound to report on.
// lookup pIC50 for C=CC(=O)Nc1cc2c(Nc3ccc(Oc4ccc(C)nc4)c(C)c3)ncnc2cc1OCCN1CCOCC1 [compound 73]
6.30 to 6.52

---

Reported pIC50 values follow for various molecules
test-system: EGFR WT (Homo sapiens, UniProt P00533)
Sequence (P00533 25-1210 N540K): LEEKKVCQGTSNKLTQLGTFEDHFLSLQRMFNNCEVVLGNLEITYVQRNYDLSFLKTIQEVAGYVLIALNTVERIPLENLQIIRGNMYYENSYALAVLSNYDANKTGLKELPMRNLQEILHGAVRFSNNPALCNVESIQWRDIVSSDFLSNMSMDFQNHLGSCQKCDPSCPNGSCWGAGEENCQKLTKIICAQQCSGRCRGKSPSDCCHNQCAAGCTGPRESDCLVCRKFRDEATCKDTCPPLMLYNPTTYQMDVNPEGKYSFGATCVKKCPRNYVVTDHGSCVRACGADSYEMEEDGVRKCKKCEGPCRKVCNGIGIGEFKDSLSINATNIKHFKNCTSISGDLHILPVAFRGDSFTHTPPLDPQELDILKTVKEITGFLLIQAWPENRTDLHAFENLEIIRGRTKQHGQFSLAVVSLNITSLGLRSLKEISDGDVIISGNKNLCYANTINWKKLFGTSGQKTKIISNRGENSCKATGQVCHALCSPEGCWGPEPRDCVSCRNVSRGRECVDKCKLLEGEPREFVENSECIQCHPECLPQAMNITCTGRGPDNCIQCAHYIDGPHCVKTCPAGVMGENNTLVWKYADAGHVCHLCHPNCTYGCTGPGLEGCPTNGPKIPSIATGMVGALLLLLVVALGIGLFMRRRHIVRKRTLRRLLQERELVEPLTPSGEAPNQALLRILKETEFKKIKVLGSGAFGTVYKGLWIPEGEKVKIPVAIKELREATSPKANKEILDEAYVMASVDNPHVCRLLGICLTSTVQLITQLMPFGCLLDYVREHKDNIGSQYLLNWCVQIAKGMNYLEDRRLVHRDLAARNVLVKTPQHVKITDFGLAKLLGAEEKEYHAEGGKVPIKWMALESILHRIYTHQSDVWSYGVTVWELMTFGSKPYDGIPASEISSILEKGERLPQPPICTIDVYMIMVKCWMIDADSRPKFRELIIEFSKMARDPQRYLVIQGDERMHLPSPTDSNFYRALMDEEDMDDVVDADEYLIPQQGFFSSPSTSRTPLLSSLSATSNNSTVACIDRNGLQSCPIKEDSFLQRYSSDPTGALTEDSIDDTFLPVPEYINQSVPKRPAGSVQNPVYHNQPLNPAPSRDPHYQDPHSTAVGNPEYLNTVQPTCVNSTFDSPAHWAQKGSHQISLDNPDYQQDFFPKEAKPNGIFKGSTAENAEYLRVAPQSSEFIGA
method: BaF3 cell proliferation assay, EGFR WT (Table A)
Type: cell-based
measurement-conditions: potency code, 3 days, CellTiterGlo, read-out: EGFR WT (Activity for Inhibiting EGFR)
pIC50: −log10 of the molar value.

Worked examples, 3 molecules total:
C=CC(=O)Nc1cc2c(Nc3ccc(OCc4cccnn4)c(Cl)c3)ncnc2cc1OCCN1CCN(C)CC1    6.00 to 6.30
C=CC(=O)Nc1cc2c(Nc3ccc(OCc4ccccn4)c(Cl)c3)ncnc2cc1C#CC12CCN(CC1)CC2    6.30 to 6.52
CC#CC(=O)Nc1cc2c(Nc3ccc(OCc4ccccn4)c(Cl)c3)ncnc2cc1OC1CCN(C)C1 (stereo not shown)    6.70 to 7.00

// lookup pIC50 for C=CC(=O)Nc1cc2c(Nc3ccc(Oc4ccccc4)c(C)c3)ncnc2cc1C#C[C@@H]1[C@H]2CN(C)C[C@@H]12
6.00 to 6.30

Record: C=CC(=O)Nc1cc2c(Nc3ccc(OCc4ccccn4)c(Cl)c3)ncnc2cc1OC[C@H]1C[C@@H]2CN(C)C[C@@H]2C1
6.52 to 6.70

Record: C=CC(=O)Nc1cc2c(Nc3ccc(Oc4ccccc4)cc3)ncnc2cc1OCCN1CCOCC1
< 6.00

Record: C=CC(=O)Nc1cc2c(Nc3ccc(OCc4ccccn4)c(Cl)c3)ncnc2cc1OCC1(N)CC1
< 6.00

---

test-system: EGFR V3 (Homo sapiens, UniProt P00533, DELINS30-297G)
Construct: expressed in transfected cells; host or cells: BaF3 (murine pro-B), retroviral pMXs-IRES-Blasticidin
Sequence (P00533 with tags, fused parts or gaps DELINS30-297G): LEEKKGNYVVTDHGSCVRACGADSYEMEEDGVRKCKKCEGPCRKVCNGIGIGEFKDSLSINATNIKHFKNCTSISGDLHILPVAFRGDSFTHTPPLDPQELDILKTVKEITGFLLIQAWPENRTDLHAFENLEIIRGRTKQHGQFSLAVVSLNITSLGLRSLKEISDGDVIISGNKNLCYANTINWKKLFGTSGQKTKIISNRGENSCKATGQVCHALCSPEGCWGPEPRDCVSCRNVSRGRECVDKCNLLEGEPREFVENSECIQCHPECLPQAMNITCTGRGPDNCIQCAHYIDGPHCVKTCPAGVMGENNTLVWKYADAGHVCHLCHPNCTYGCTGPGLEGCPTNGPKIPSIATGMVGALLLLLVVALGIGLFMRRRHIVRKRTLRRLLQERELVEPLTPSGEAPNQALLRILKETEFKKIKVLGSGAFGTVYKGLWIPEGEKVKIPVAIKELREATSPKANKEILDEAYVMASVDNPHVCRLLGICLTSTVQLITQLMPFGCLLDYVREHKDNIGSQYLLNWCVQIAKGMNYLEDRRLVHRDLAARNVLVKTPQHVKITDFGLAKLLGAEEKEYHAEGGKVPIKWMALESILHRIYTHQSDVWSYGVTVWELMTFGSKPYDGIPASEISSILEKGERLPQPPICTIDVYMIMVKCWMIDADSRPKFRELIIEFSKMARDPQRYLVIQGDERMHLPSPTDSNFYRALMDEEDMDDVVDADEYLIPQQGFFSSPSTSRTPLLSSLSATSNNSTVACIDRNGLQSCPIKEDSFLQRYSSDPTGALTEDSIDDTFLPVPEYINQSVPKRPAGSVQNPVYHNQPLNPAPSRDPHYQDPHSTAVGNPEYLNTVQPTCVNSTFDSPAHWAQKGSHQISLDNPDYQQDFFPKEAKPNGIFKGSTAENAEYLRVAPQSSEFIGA
method: BaF3 cell proliferation assay, EGFR V3 (Table A)
Format: cell-based
measurement-conditions: potency code, 3 days, CellTiterGlo, read-out: EGFR V3 (Activity for Inhibiting EGFR)
pIC50: −log10 of the molar value.
endpoint-name: pIC50

Worked examples, 6 molecules total:
CC#CC(=O)Nc1cc2c(Nc3ccc(OCc4ccccn4)c(Cl)c3)ncnc2cc1N(C)CCN1CCOCC1 [compound 4]    7.00 to 7.30
C=CC(=O)Nc1cc2c(Nc3ccc(OCc4ccccn4)c(Cl)c3)ncnc2cc1OCCN1CCC(O)CC1 [compound 111]    7.30 to 7.52
C=CC(=O)Nc1cc2c(Nc3ccc(OCc4ccccn4)c(Cl)c3)ncnc2cc1C#C[C@@H]1[C@H]2CN(C3COC3)C[C@@H]12 [compound 113]    7.00 to 7.30
CC#CC(=O)Nc1cc2c(Nc3ccc(Oc4ccccc4)cc3)ncnc2cc1C#C[C@@H]1[C@H]2CN(C)C[C@@H]12 [compound 108]    6.70 to 7.00
C=CC(=O)Nc1cc2c(Nc3ccc(OCc4ccccn4)c(Cl)c3)ncnc2cc1OCC1CN(C)C1 [compound 123]    7.30 to 7.52
C=CC(=O)Nc1cc2c(Nc3ccc(OCc4ccccn4)c(Cl)c3)ncnc2cc1OCCN1CC(F)C1 [compound 34]    7.30 to 7.52

// lookup pIC50 for C=CC(=O)Nc1cc2c(Nc3ccc(OCc4ccccn4)c(Cl)c3)ncnc2cc1N(C)CCCN1CCOCC1 [compound 12]
6.70 to 7.00

---

Reported IC50 values follow for various compounds
test-system: EGFR SVD (Homo sapiens, UniProt P00533, DUP768-770)
Construct: expressed in transfected cells; host or cells: BaF3 (murine pro-B), retroviral pMXs-IRES-Blasticidin
method: BaF3 cell proliferation assay, EGFR SVD (Table A)
Assay type: cell-based
measurement-conditions: potency code, 3 days, CellTiterGlo, read-out: EGFR SVD (Activity for Inhibiting EGFR)

So what IC50 did C=CC(=O)Nc1cc2c(Nc3ccc(OCc4ccccn4)c(Cl)c3)ncnc2cc1N1CCN(C)CC1 get with EGFR SVD (Homo sapiens, UniProt P00533, DUP768-770)?
500 to 1000 nM

Record: C=CC(=O)Nc1cc2c(Nc3ccc(OCc4ccccn4)c(Cl)c3)ncnc2cc1OCCN(C)C1CCOC1 (stereo not shown)
30 to 50 nM

Record: C=CC(=O)Nc1cc2c(Nc3ccc(OCc4ccccn4)c(Cl)c3)ncnc2cc1OC1CC(N(C)C)C1 (stereo not shown)
20 to 30 nM

Record: C=CC(=O)Nc1cc2c(Nc3ccc(OCc4ccccn4)c(Cl)c3)ncnc2cc1OCCC1(N(C)C)CC1
30 to 50 nM

---

test-system: EGFR SVD (Homo sapiens, UniProt P00533, DUP768-770)
Construct: expressed in transfected cells; host or cells: BaF3 (murine pro-B), retroviral pMXs-IRES-Blasticidin
method: BaF3 cell proliferation assay, EGFR SVD (Table A)
Assay type: cell-based
measurement-conditions: potency code, 3 days, CellTiterGlo, read-out: EGFR SVD (Activity for Inhibiting EGFR)
endpoint-name: IC50

Worked examples, 3 compounds total:
C=CC(=O)Nc1cc2c(Nc3ccc(OCc4ccccn4)c(Cl)c3)ncnc2cc1OCCN1CC2(CCO2)C1    50 to 100 nM
C=CC(=O)Nc1cc2c(Nc3ccc(OCc4ccccn4)c(Cl)c3)c(C#N)cnc2cc1OCCN1CCOCC1    300 to 500 nM
C=CC(=O)Nc1cc2c(Nc3ccc(OCc4ccccn4)c(Cl)c3)ncnc2cc1C#C[C@@H]1[C@H]2CN(C)C[C@@H]12    30 to 50 nM

So what IC50 did C=CC(=O)Nc1cc2c(Nc3ccc(OCc4ccccn4)c(Cl)c3)ncnc2cc1OCCN1CCC1 get with EGFR SVD (Homo sapiens, UniProt P00533, DUP768-770)?
50 to 100 nM

Record: C=CC(=O)Nc1cc2c(Nc3ccc(OCc4ccccn4)c(Cl)c3)ncnc2cc1OCCCN1CCCC1
10 to 20 nM

Record: C=CC(=O)Nc1cc2c(Nc3ccc(OCc4ccccn4)c(Cl)c3)ncnc2cc1N1CCC(N(C)C)CC1
200 to 300 nM

Record: C=CC(=O)Nc1cc2c(Nc3ccc(OCc4ccccn4)c(Cl)c3)ncnc2cc1OCC1(N(C)C)CC1
50 to 100 nM

---

test-system: EGFR NPH (Homo sapiens, UniProt P00533, DUP771-773)
Construct: expressed in transfected cells; host or cells: BaF3 (murine pro-B), retroviral pMXs-IRES-Blasticidin
Sequence (P00533 with tags, fused parts or gaps DUP771-773): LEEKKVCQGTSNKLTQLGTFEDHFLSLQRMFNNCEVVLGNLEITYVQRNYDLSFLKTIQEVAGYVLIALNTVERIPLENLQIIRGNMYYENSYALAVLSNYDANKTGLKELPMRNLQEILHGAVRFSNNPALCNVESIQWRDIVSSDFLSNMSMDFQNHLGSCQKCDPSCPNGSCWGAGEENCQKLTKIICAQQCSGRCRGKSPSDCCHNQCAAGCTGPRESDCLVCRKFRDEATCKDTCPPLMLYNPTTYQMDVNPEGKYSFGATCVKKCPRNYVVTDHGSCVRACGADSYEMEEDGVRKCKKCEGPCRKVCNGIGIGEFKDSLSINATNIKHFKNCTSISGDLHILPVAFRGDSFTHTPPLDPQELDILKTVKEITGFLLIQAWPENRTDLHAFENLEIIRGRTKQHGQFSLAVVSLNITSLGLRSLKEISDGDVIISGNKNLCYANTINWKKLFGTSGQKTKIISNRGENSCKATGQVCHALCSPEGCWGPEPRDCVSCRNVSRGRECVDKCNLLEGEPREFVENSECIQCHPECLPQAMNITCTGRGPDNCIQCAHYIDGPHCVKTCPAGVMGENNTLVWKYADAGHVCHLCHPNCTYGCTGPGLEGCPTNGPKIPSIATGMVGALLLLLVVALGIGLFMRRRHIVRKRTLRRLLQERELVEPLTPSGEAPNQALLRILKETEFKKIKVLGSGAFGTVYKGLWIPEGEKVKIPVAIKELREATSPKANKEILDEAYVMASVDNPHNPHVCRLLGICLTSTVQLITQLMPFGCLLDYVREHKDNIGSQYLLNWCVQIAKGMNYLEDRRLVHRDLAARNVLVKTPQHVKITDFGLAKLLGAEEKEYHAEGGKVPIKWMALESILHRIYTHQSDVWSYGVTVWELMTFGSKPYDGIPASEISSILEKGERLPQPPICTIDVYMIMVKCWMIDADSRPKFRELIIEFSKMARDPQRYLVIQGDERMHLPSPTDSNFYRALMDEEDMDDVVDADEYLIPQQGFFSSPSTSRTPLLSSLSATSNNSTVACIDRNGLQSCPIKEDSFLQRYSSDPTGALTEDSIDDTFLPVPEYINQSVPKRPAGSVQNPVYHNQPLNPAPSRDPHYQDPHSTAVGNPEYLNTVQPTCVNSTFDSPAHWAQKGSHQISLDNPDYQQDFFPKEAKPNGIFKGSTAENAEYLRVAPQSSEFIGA
method: Activity for inhibiting EGFR (Table A), EGFR NPH
Type: cell-based
measurement-conditions: read-out: EGFR NPH, potency code (IC50)
Reported IC50 values follow for various compounds

Worked examples, 5 compounds total:
CC#CC(=O)Nc1cc2c(Nc3ccc(OCc4ccccn4)c(Cl)c3)ncnc2cc1OCCN1CCN(C)CC1    50 to 100 nM
C=CC(=O)Nc1cc2c(Nc3ccc(OCc4ccccn4)c(Cl)c3)ncnc2cc1OCCCN1CCOCC1    10 to 20 nM
C=CC(=O)Nc1cc2c(Nc3ccc(OCc4ccccn4)c(Cl)c3)ncnc2cc1OCCN(C)C    100 to 200 nM
C=CC(=O)Nc1cc2c(Nc3ccc(OCc4ccccn4)c(Cl)c3)ncnc2cc1OCCC1(N(C)C)CC1    50 to 100 nM
C=CC(=O)Nc1cc2c(Nc3ccc(OCc4ccccn4)c(Cl)c3)ncnc2cc1OCCN1CC2CCC(C1)O2    50 to 100 nM

So what IC50 did C=CC(=O)Nc1cc2c(Nc3ccc(OCc4ccccn4)c(Cl)c3)ncnc2cc1C#CC(C)(C)N(C)C get with EGFR NPH (Homo sapiens, UniProt P00533, DUP771-773)?
100 to 200 nM

Record: C=CC(=O)Nc1cc2c(Nc3ccc(OCc4ccccn4)c(Cl)c3)ncnc2cc1OCCN1CCN(C)CC1
10 to 20 nM
